target: Protein kinase C gamma type (Homo sapiens); assay: Inhibition of PKCgamma at 10 uM by HTRF assay relative to control
MEASUREMENT_TYPE: inhibition

Please review the following examples before continuing.
COMPOUND	inhibition
Cc1cccc(Oc2ccnc(N3CCN(C(=O)c4c(C)noc4C)CC3)n2)c1	3%
Cc1cccc(N(C)c2cc(Nc3cccc(C(=O)N4CCCC5CCCCC54)c3)ncn2)c1 (stereo not drawn)	5%
O=C(COc1ccccc1)N1CCN(c2nccc(Nc3ccc4ncsc4c3)n2)CC1	14%
CN(C)CC(C)(C)CNC(=O)c1cccc(Nc2nccc(Nc3ccc4ncsc4c3)n2)c1	79%

The record that follows has no inhibition shown yet.
Ask | Look up and state reported inhibition for Cc1cccc(Oc2ccnc(N3CCN(CC(=O)Nc4cccc5c4CCCC5)CC3)n2)c1
Reply | 5%

###

Listing: inhibition of selected compounds
biological target: Cyclin-dependent kinase 1 (Homo sapiens); test: Inhibition of CDK1 at 10 uM by HTRF assay relative to control
Quick note: give the figure in %, leave out the unit.

STRUCTURE_STRING	MEASURED_ON	MEASUREMENT_TYPE	EXPERIMENTAL_VALUE
COC[C@@H]1CCCN1C(=O)[C@@H]1CCCN1c1nccc(Nc2ccccc2)n1	Cyclin-dependent kinase 1 (Homo sapiens)	inhibition	3
CN(CCCn1ccnc1)C(=O)[C@@H]1CCCN1c1nccc(Nc2ccccc2)n1	Cyclin-dependent kinase 1 (Homo sapiens)	inhibition	0
CN(C)CC(C)(C)CNC(=O)c1cccc(Nc2nccc(Nc3ccc4ncsc4c3)n2)c1	Cyclin-dependent kinase 1 (Homo sapiens)	inhibition	5

The record that follows has no inhibition shown yet.
Ask | Look up and state reported inhibition for Cc1cccc(Oc2ccnc(N3CCN(CC(=O)Nc4cccc5c4CCCC5)CC3)n2)c1
Reply | 0

###

molecular target: Mitogen-activated protein kinase 14 (Homo sapiens) (UniProt Q16539); assay: Inhibition of p38alpha at 10 uM by HTRF assay relative to control
Sequence (Q16539 whole entry): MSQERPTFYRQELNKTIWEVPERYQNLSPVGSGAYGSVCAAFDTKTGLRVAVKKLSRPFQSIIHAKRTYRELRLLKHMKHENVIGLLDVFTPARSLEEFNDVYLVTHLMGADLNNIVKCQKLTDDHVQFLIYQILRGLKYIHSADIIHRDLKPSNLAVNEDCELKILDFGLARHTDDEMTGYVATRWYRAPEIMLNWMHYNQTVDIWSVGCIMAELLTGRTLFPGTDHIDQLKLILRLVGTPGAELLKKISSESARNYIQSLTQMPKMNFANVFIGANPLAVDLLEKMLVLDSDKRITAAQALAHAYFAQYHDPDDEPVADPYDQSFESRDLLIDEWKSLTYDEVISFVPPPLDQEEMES
Quick rule: inhibition of at least 8% means yes (1), below that means no (0).

The examples below pair each entry with its known result.
STRUCTURE_STRING	CATEGORY
Cc1cccc(Oc2ccnc(N3CCN(CC(=O)Nc4cccc5c4CCCC5)CC3)n2)c1	yes (1)
O=C(CN1CCN(c2ncnc3c2CN(Cc2ccccc2)CC3)CC1)Nc1cc(F)ccc1F	no (0)
CN(C)CC(C)(C)CNC(=O)[C@@H]1CCCN1c1nccc(Nc2ccccc2)n1	no (0)

Ask | Would you say Nc1nc(Nc2ccc(C(=O)NCCc3ccncc3)cc2)cc(N2CCOCC2)n1 shows inhibition at minimum 8%?
Reply | yes (1)

Ask | Would you say Cc1cccc(N(C)c2cc(Nc3cccc(C(=O)NCCCn4ccnc4)c3)ncn2)c1 shows inhibition at minimum 8%?
Reply | yes (1)

Ask | Would you say O=C(COc1ccccc1)N1CCN(c2nccc(Nc3ccc4ncsc4c3)n2)CC1 shows inhibition at minimum 8%?
Reply | no (0)

###

Listing: inhibition of selected compounds
target: Fibroblast growth factor receptor 1 (Homo sapiens); experiment: Inhibition of FGFR1 at 10 uM by HTRF assay relative to control
Quick note: give the figure in %, leave out the unit.

Please review the following examples before continuing.
STRUCTURE_STRING	MEASURED_ON	EXPERIMENTAL_VALUE
COC[C@@H]1CCCN1C(=O)[C@@H]1CCCN1c1nccc(Nc2ccccc2)n1	Fibroblast growth factor receptor 1 (Homo sapiens)	0
COc1cccc(Nc2cc(N3CCC[C@H]3C(=O)NCCc3ccc(O)cc3)nc(N)n2)c1	Fibroblast growth factor receptor 1 (Homo sapiens)	7
CN(CCCn1ccnc1)C(=O)[C@@H]1CCCN1c1nccc(Nc2ccccc2)n1	Fibroblast growth factor receptor 1 (Homo sapiens)	0
O=C(NCc1ccncc1)c1cccc(Nc2cc(Nc3cccc(Br)c3)ncn2)c1	Fibroblast growth factor receptor 1 (Homo sapiens)	0

The record that follows has no inhibition shown yet.
Ask | Look up and state reported inhibition for Cc1cccc(Nc2nccc3c2CN(C(=O)c2cc(C)n(C)c2C)CC3)c1
Reply | 0
